Numbers sourced from PubChem BioAssay (NCI).

# Test system: SF-295 CNS
# assay.comment: NCI tumour cell line growth inhibition, 48 h; in the data active = GI50 below about 0.43 µM; inactive = the rest
Use one of these outcomes when replying: 1 (active), -1 (inactive)

Observe how each entry below is paired with its result.
CN1CCN(C(=O)COc2ccc(/C=C3\CC4C5CC=C6CC(Cl)CCC6(C)C5CCC4(C)C3=O)cc2)CC1 (centres undefined)    -1
N/N=C(/Cc1nc2ccc(C(=O)c3ccccc3)cc2[nH]c1=O)C(=O)Nc1ccc([N+](=O)[O-])cc1[N+](=O)[O-]    -1
CC(=O)[C@H]1CCC2[C@@H]3CC=C4C[C@@H]([O-])CC[C@]4(C)C3CC[C@@]21C.CC(=O)[C@H]1CCC2[C@@H]3CC=C4C[C@@H]([O-])CC[C@]4(C)C3CC[C@@]21C.CC(=O)[CH-]C(=O)c1ccccc1.CC(=O)[CH-]C(=O)c1ccccc1.Cl.[Ti+4] (some centres undefined)    -1
Cc1cc(-c2cc(O)ccc2Cl)cc2nnc(Nc3ccc(OCCN4CCCC4)cc3)nc12    -1
CC1NC(=O)C2=C1C(=O)NC(=O)C2 (centres undefined)    -1

Problem: # outcome recorded in this test, key = O=C(NCC1CCCO1)c1ccc(NC2=C(Cl)C(=O)N(Cc3ccccc3)C2=O)cc1 (centres undefined)
Result: -1

Problem: Could you kindly confirm the outcome this assay logged for c1ccc(CNCCN(CCNCc2ccccn2)Cc2ccc3ccccc3c2)nc1 ?
Result: -1

Problem: What is the recorded call for this compound in the test? CC(=O)[CH-]C(=O)c1ccccc1.CC(=O)[CH-]C(=O)c1ccccc1.CC(=O)[CH-]C(=O)c1ccccc1.[Nd+3].[OH3+]
Result: -1

Problem: Give the logged outcome of this assay for the following compound: COc1cc(C2c3cc4c(cc3C(OC(=O)C[n+]3ccccc3)C3COC(=O)C23)OCO4)cc(OC)c1OC (centres undefined)
Result: 1

---

# Tested on: UACC-257 melanoma
# assay.comment: NCI tumour cell line growth inhibition, 48 h
Listing of entries alongside the reported TGI.

CCCc1cc(COC)c(C#N)c(=O)[nH]1    > 100 µM
CC(=O)[C@H]1CCC2[C@@H]3CC=C4C[C@@H]([O-])CC[C@]4(C)C3CC[C@@]21C.CC(=O)[C@H]1CCC2[C@@H]3CC=C4C[C@@H]([O-])CC[C@]4(C)C3CC[C@@]21C.CC(=O)[CH-]C(=O)c1ccccc1.CC(=O)[CH-]C(=O)c1ccccc1.Cl.[Ti+4] (some centres undefined)    69.7 µM
CN(C)N1C(=O)S/C(=C\c2ccc([N+](=O)[O-])cc2)C1=O    > 100 µM

Continue with the next compound.
Problem: Write down the reported TGI of CC(C)CC(N)C(=O)Nc1ccc2ccccc2c1 (centres undefined) , test system: UACC-257 melanoma.
Result: > 100 µM

---

# Test system: MDA-MB-231 breast
# assay.comment: NCI tumour cell line growth inhibition, 48 h
Reported TGI values for a set of compounds
Provide only the numeric value, understood in µM.

Before answering, review these 6 worked examples.
CCOC(=O)c1nc2cc(C(F)(F)F)ccc2nc1Nc1ccc(C(=O)OC)s1    94.6
CCN(Cc1cccc(Cl)c1)c1ccc(CO)c(Cl)c1    30.2
O=C(NCC1CCCO1)c1ccc(NC2=C(Cl)C(=O)N(Cc3ccccc3)C2=O)cc1 (stereo unspecified)    46.6
CN1CCN(Cc2ccc(NC(=O)c3cncc(C#Cc4cnc(N)c5cccnc45)c3)cc2C(F)(F)F)CC1    0.975
O=C(CSCC(=O)N/N=C\c1cccc([N+](=O)[O-])c1)N/N=C\c1cccc([N+](=O)[O-])c1    53.8
COc1c(C(=O)NCCN(CCNC(=O)c2cccc(-c3cccc(C(=O)N(C)C)c3OC)c2OC)CCNC(=O)c2cccc(-c3cccc(C(=O)N(C)C)c3OC)c2OC)cccc1-c1cccc(C(=O)N(C)C)c1OC    81.2

Please find the next compound below.
Problem: Report TGI for CCCCCCCCCCCCOC1C(CNC(=O)C2OC3OC(C)(C)OC3C2NC(=O)CN2CCN(c3ccc(OC)cc3)CC2)OC2OC(C)(C)OC21 (stereo unspecified) tested on MDA-MB-231 breast.
Result: 17.8

---

// TGI lookup, one value per entry
# Tested on: KM20L2 colon
# assay.comment: NCI tumour cell line growth inhibition, 48 h

CC(=O)[CH-]C(=O)c1ccccc1.CC(=O)[CH-]C(=O)c1ccccc1.CC(=O)[CH-]C(=O)c1ccccc1.[Nd+3].[OH3+]    > 100 µM

Problem: Which TGI value is on record for Cc1nc2c(o1)C(=Nc1ccccc1)c1nc(C)oc1C2=Nc1ccccc1 ?
Result: 70 µM

Problem: Bench note: what TGI did Cc1cc(=O)n(-c2cc3cccccc-3n2)[nH]1 show?
Result: > 100 µM

---

# Test system: HCT-15 colon
# assay.comment: NCI tumour cell line growth inhibition, 48 h
parameter: TGI

Sample records with TGI:
COc1ccc(COC(=O)NCC(=O)NC(C)C(=O)NC(Cc2ccccc2)C(=O)OCc2ccccc2)cc1 (stereo not given)    > 100 µM
Cc1c(CCCl)c(N=P(c2ccccc2)(c2ccccc2)c2ccccc2)n2c(nc3ccccc32)c1C#N    > 10 µM
NC1=NN(c2ccccc2)C(=O)C1C(=O)C(=O)Nc1ccc(Cl)c(Cl)c1 (stereo not given)    > 100 µM
COC(=O)[C@@]12CC(C(C)C)[C@H]3CC(C(=O)C=C1OC)[C@H]32 (stereo not given in full)    > 100 µM
COc1ccc(N=NC(=O)NC(CC(C)C)C(=O)NCC(=O)O)cc1 (stereo not given)    > 100 µM
CC(=O)N1N=C(c2ccc(Nc3nc(Nc4ccc(F)cc4)nc(Nc4ccc(F)cc4)n3)cc2)CC1c1ccc(N(C)C)cc1 (stereo not given)    7.43 µM
C=CCc1c(O)c2nsnc2c2nsnc12    > 10 µM
O=C(c1ccccc1)N1CCC(CC2(c3cc4ccccc4[nH]3)OCCO2)CC1    > 100 µM

Problem: So what does the record say about TGI for C=CCC(N[C@@H](CO)c1ccccc1)c1cn(C(=O)OCC)c2ccccc12 (stereo not given in full) ?
Result: 40.8 µM

Problem: Please give the measured TGI for this compound: O=C1C=CC(=O)c2c(O)c3c(c(O)c21)C[C@H](O)[C@H](O)[C@@H]3O
Result: 7.19 µM

---

# Tested on: SN12C renal
# assay.comment: NCI tumour cell line growth inhibition, 48 h
parameter: TGI

Solved entries:
Nc1nc(NCCCO)cc(=O)[nH]1    > 100 µM
Clc1cccc(C2N3CCCCC3[C@@H]3c4[nH]c5ccccc5c4CCN23)c1 (stereo partly specified)    26.5 µM
CC(C)=CCC[C@@H](C)C1=C(O)C(Nc2ccccc2Cl)=C(C)C(=O)C1=O    > 75 µM
O=[N+]([O-])c1ccc(-n2nc3ccc4c(no[n+]4[O-])c3n2)cc1    > 100 µM
Cc1cccc2sc(-c3ccc(O)cc3)nc12    34.3 µM
CSCSCC(CO)NC(=O)/C(C)=C\c1c(C)[nH]c(=O)[nH]c1=O (stereo unspecified)    > 250 µM
Cn1cc(-c2cnn3c(N)c(Br)c(C4CCCNC4)nc23)cn1 (stereo unspecified)    50.6 µM
N#CC(C(=O)/C(=N\NC(N)=O)C(C#N)c1ccccc1)c1ccccc1 (stereo unspecified)    > 100 µM
CC1=C(O)c2ccccc2C(=O)C1=O    > 100 µM
Cc1c(N=C/C=C/c2ccccc2)c(=O)n(-c2ccccc2)n1C    43.4 µM

Problem: Record request: TGI value, item CC(C)(Cl)C(Br)CCC(Br)(CCl)C(Cl)CBr (stereo unspecified)
Result: > 10 µM

---

# System: MCF7 breast
# assay.comment: NCI tumour cell line growth inhibition, 48 h
This listing pairs molecules with measured GI50.

Cc1cc(-c2cc(O)ccc2Cl)cc2nnc(Nc3ccc(OCCN4CCCC4)cc3)nc12    0.179 µM

Problem: # lookup: GI50 of CC(=O)N1N=C(c2ccc(Nc3nc(Nc4ccc(F)cc4)nc(Nc4ccc(F)cc4)n3)cc2)CC1c1ccc(N(C)C)cc1 (stereo unspecified)
Result: 3.23 µM

Problem: Endpoint output: GI50 of CC[C@@H](C)/C=C(C)/C=C/C(=O)c1c(O)c(-c2ccc(O)cc2)cn(O)c1=O . Value?
Result: 0.365 µM

Problem: Which GI50 is listed for Cc1cc2c(-c3nc4ccccn4c3N)c(O)c(O)cc2c(O)c1-c1c(C)cc2c(-c3nc4ccccn4c3N)c(O)c(O)cc2c1O ?
Result: 0.606 µM

Problem: Any idea what GI50 was measured for O=[N+]([O-])c1cc([N+](=O)[O-])c(Nn2c3ccccc3c3ccccc32)c([N+](=O)[O-])c1 ?
Result: 0.292 µM

Problem: Field request: GI50 | item: C=CCC(N[C@@H](CO)c1ccccc1)c1cn(C(=O)OCC)c2ccccc12 (stereo partly specified)
Result: 29.4 µM

Problem: Give its GI50 value. Item: C=CCC(N[C@H](CO)c1ccccc1)c1cn(Cc2ccccc2Cl)c(=O)n(Cc2ccccc2Cl)c1=O (stereo partly specified)
Result: 16.4 µM
